species on record: Rattus norvegicus; assay: Open TG-GATES - Regimen: Single; assay type: toxicity, organism-based, Sprague-Dawley; set-up: regimen Single, gender Male, age 6 weeks; settings: in vivo, po, 0 mg/kg, 6 h, tissue Plasma, route gavage, dose level Control
Binarize DBIL at 0.04 mg/dL; below is rule met, at or above is rule not met.

molecule: C[C@@H]1C[C@H]2[C@@H]3CCC4=CC(=O)C=C[C@]4(C)[C@@]3(F)[C@@H](O)C[C@]2(C)[C@@]1(O)C(=O)CO [DEXAMETHASONE]
label.class: rule met
//
molecule: CC1=C(/C=C/C(C)=C/C=C/C(C)=C/CO)C(C)(C)CCC1 [RETINOL]
label.class: rule met
//
molecule: CN(C)CCN(Cc1cccs1)c1ccccn1
label.class: rule met
//
molecule: CCOC(=O)CCC(=O)O[C@H]1[C@H](O[C@@H]2[C@@H](C)[C@H](O[C@H]3C[C@@](C)(OC)[C@@H](O)[C@H](C)O3)[C@@H](C)C(=O)O[C@H](CC)[C@@](C)(O)[C@H](O)[C@@H](C)C(=O)[C@H](C)C[C@@]2(C)O)O[C@H](C)C[C@@H]1N(C)C [ERYTHROMYCIN ETHYLSUCCINATE]
label.class: rule met
//
molecule: O=C(CCCN1CCC(O)(c2ccc(Cl)cc2)CC1)c1ccc(F)cc1 [HALOPERIDOL]
label.class: rule met
//
molecule: CCOc1ccc(NC(=O)CC(C)O)cc1 (configuration not stated) [BUCETIN]
label.class: rule met
//
molecule: NNC(=O)c1ccncc1 [ISONIAZID]
label.class: rule not met
//
molecule: CC(C)OC(=O)C(C)(C)Oc1ccc(C(=O)c2ccc(Cl)cc2)cc1 [FENOFIBRATE]
label.class: rule met
//
molecule: CN1C(=O)CN=C(c2ccccc2)c2cc(Cl)ccc21 [DIAZEPAM]
label.class: rule met
//
molecule: CC/C(=C(\c1ccccc1)c1ccc(OCCN(C)C)cc1)c1ccccc1 [TAMOXIFEN]
label.class: rule met
//
molecule: COc1ccc2[nH]c([S+]([O-])Cc3ncc(C)c(OC)c3C)nc2c1 (configuration not stated) [OMEPRAZOLE]
label.class: rule not met
//
molecule: COc1cc2c(c(OC)c1OC)-c1ccc(OC)c(=O)cc1[C@@H](NC(C)=O)CC2 [COLCHICINE]
label.class: rule met
//
molecule: CCCNC(=O)NS(=O)(=O)c1ccc(Cl)cc1 [CHLORPROPAMIDE]
label.class: rule met
//
molecule: NC(N)=Nc1nc(CSCCC(N)=NS(N)(=O)=O)cs1 [FAMOTIDINE]
label.class: rule not met
//
molecule: COC1=CC(=O)C[C@@H](C)[C@]12Oc1c(Cl)c(OC)cc(OC)c1C2=O [GRISEOFULVIN]
label.class: rule not met
//
molecule: Cc1ccc(C)c(OCCCC(C)(C)C(=O)O)c1 [GEMFIBROZIL]
label.class: rule met
//
molecule: CN(C)CCCN1c2ccccc2CCc2ccc(Cl)cc21 [CLOMIPRAMINE]
label.class: rule met

* * *

species: Rattus norvegicus; assay: Open TG-GATES - Regimen: Single; type: toxicity, organism-based, Sprague-Dawley; parameters: regimen Single, gender Male, age 6 weeks; settings: in vivo, po, 0 mg/kg, 24 h, tissue Plasma, route gavage, dose level Control
Binarize ALT at 40 IU/L; below is True, at or above is False.

molecule: CN(C)CCN(Cc1cccs1)c1ccccn1
label.class: False
//
molecule: CN(C)CCCN1c2ccccc2CCc2ccc(Cl)cc21 [CLOMIPRAMINE]
label.class: False
//
molecule: COC1=CC(=O)C[C@@H](C)[C@]12Oc1c(Cl)c(OC)cc(OC)c1C2=O [GRISEOFULVIN]
label.class: True
//
molecule: CC1=C(/C=C/C(C)=C/C=C/C(C)=C/CO)C(C)(C)CCC1 [RETINOL]
label.class: False
//
molecule: CN1C(=O)CN=C(c2ccccc2)c2cc(Cl)ccc21 [DIAZEPAM]
label.class: True
//
molecule: O=C(CCCN1CCC(O)(c2ccc(Cl)cc2)CC1)c1ccc(F)cc1 [HALOPERIDOL]
label.class: False
//
molecule: COc1ccc2[nH]c([S+]([O-])Cc3ncc(C)c(OC)c3C)nc2c1 (centres undefined) [OMEPRAZOLE]
label.class: True
//
molecule: CCCNC(=O)NS(=O)(=O)c1ccc(Cl)cc1 [CHLORPROPAMIDE]
label.class: False

* * *

species: Rattus norvegicus; experiment: Open TG-GATES - Regimen: Single; type: toxicity, organism-based, Sprague-Dawley; parameters: regimen Single, gender Male, age 6 weeks; conditions: in vivo, po, 1000 mg/kg, 6 h, tissue Plasma, route gavage, dose level High

compound: NC(N)=Nc1nc(CSCCC(N)=NS(N)(=O)=O)cs1
units: meq/L
Cl: 104

compound: COc1ccc2[nH]c([S+]([O-])Cc3ncc(C)c(OC)c3C)nc2c1 (centres undefined)
units: meq/L
Cl: 100.8

compound: COC1=CC(=O)C[C@@H](C)[C@]12Oc1c(Cl)c(OC)cc(OC)c1C2=O
units: meq/L
Cl: 103.2

compound: CCOC(=O)CCC(=O)O[C@H]1[C@H](O[C@@H]2[C@@H](C)[C@H](O[C@H]3C[C@@](C)(OC)[C@@H](O)[C@H](C)O3)[C@@H](C)C(=O)O[C@H](CC)[C@@](C)(O)[C@H](O)[C@@H](C)C(=O)[C@H](C)C[C@@]2(C)O)O[C@H](C)C[C@@H]1N(C)C [ERYTHROMYCIN ETHYLSUCCINATE]
units: meq/L
Cl: 104

* * *

organism: Rattus norvegicus; assay: Open TG-GATES - Regimen: Single; type: toxicity, organism-based, Sprague-Dawley; set-up: regimen Single, gender Male, age 6 weeks; conditions: in vivo, po, 1000 mg/kg, 24 h, tissue Blood, route gavage, dose level High
Reported Ht values for a set of compounds

compound: NC(N)=Nc1nc(CSCCC(N)=NS(N)(=O)=O)cs1
units: %
Ht: 37.1
//
compound: CC(C)OC(=O)C(C)(C)Oc1ccc(C(=O)c2ccc(Cl)cc2)cc1 [FENOFIBRATE]
units: %
Ht: 39.4
//
compound: CCOC(=O)CCC(=O)O[C@H]1[C@H](O[C@@H]2[C@@H](C)[C@H](O[C@H]3C[C@@](C)(OC)[C@@H](O)[C@H](C)O3)[C@@H](C)C(=O)O[C@H](CC)[C@@](C)(O)[C@H](O)[C@@H](C)C(=O)[C@H](C)C[C@@]2(C)O)O[C@H](C)C[C@@H]1N(C)C [ERYTHROMYCIN ETHYLSUCCINATE]
units: %
Ht: 41.8
//
compound: COc1ccc2[nH]c([S+]([O-])Cc3ncc(C)c(OC)c3C)nc2c1 (stereo not given)
units: %
Ht: 37.7
//
compound: COC1=CC(=O)C[C@@H](C)[C@]12Oc1c(Cl)c(OC)cc(OC)c1C2=O
units: %
Ht: 39.3

* * *

organism: Rattus norvegicus; test: Open TG-GATES - Regimen: Single; type: toxicity, organism-based, Sprague-Dawley; design: regimen Single, gender Male, age 6 weeks; conditions: in vivo, po, 0 mg/kg, 6 h, tissue Blood, route gavage, dose level Control

molecule: NNC(=O)c1ccncc1
Eos [%]: 1
--
molecule: COc1ccc2[nH]c([S+]([O-])Cc3ncc(C)c(OC)c3C)nc2c1 (centres undefined)
Eos [%]: 0.8
--
molecule: CCOc1ccc(NC(=O)CC(C)O)cc1 (centres undefined)
Eos [%]: 1
--
molecule: CCCNC(=O)NS(=O)(=O)c1ccc(Cl)cc1 [CHLORPROPAMIDE]
Eos [%]: 1
--
molecule: COC1=CC(=O)C[C@@H](C)[C@]12Oc1c(Cl)c(OC)cc(OC)c1C2=O
Eos [%]: 0.8
--
molecule: COc1cc2c(c(OC)c1OC)-c1ccc(OC)c(=O)cc1[C@@H](NC(C)=O)CC2
Eos [%]: 0.8
--
molecule: CN(C)CCN(Cc1cccs1)c1ccccn1
Eos [%]: 0.4
--
molecule: CN(C)CCCN1c2ccccc2CCc2ccc(Cl)cc21
Eos [%]: 0.8
--
molecule: C[C@@H]1C[C@H]2[C@@H]3CCC4=CC(=O)C=C[C@]4(C)[C@@]3(F)[C@@H](O)C[C@]2(C)[C@@]1(O)C(=O)CO
Eos [%]: 0.6

* * *

species on record: Rattus norvegicus; assay: Open TG-GATES - Regimen: Single; format: toxicity, organism-based, Sprague-Dawley; set-up: regimen Single, gender Male, age 6 weeks; conditions: in vivo, po, 300 mg/kg, 3 h, tissue Kidney, route gavage, dose level Middle

molecule: COc1ccc2[nH]c([S+]([O-])Cc3ncc(C)c(OC)c3C)nc2c1 (centres undefined) [OMEPRAZOLE]
KIDNEY_L, g: 1

molecule: CCOC(=O)CCC(=O)O[C@H]1[C@H](O[C@@H]2[C@@H](C)[C@H](O[C@H]3C[C@@](C)(OC)[C@@H](O)[C@H](C)O3)[C@@H](C)C(=O)O[C@H](CC)[C@@](C)(O)[C@H](O)[C@@H](C)C(=O)[C@H](C)C[C@@]2(C)O)O[C@H](C)C[C@@H]1N(C)C [ERYTHROMYCIN ETHYLSUCCINATE]
KIDNEY_L, g: 1

molecule: COC1=CC(=O)C[C@@H](C)[C@]12Oc1c(Cl)c(OC)cc(OC)c1C2=O [GRISEOFULVIN]
KIDNEY_L, g: 0.9

molecule: NC(N)=Nc1nc(CSCCC(N)=NS(N)(=O)=O)cs1 [FAMOTIDINE]
KIDNEY_L, g: 1
